settings: in isopropanol, 303.15 K
readout-name: solubility (mole fraction)
Please state the value as a number alone, without comment.

State the recorded solubility (mole fraction) for this entry: COC(=O)c1ccccc1S(N)(=O)=O
0.00557

* * *

conditions: in n-propanol, 308.05 K
readout-name: solubility (mole fraction)
Please state the value as a number alone, without comment.

State the recorded solubility (mole fraction) for this entry: COC(=O)c1ccccc1S(N)(=O)=O
0.00778

* * *

details: in ethanol, 272.15 K
readout-name: solubility (mole fraction)

State the recorded solubility (mole fraction) for this entry: COC(=O)c1ccccc1S(N)(=O)=O
0.00172

* * *

details: in cyclopentanone, 273.15 K
readout-name: solubility (mole fraction)
Please state the value as a number alone, without comment.

State the recorded solubility (mole fraction) for this entry: COC(=O)c1ccccc1S(N)(=O)=O
0.0537
